details: 313.15 K; 101 kPa; Liquid; Falling or rolling sphere viscometry
For each entry below, report its viscosity value.
Numbers only, in mPa·s.

The examples below pair each entry with its known result.
molecular_string=CCCC[N+]1(C)CCCC1.O=S(=O)([N-]S(=O)(=O)C(F)(F)F)C(F)(F)F observed_measurement=41.87
molecular_string=N#CCCCCC#N observed_measurement=4.54
molecular_string=N#CCCCC#N observed_measurement=4.25

As a next step, examine the molecule that follows.
INPUT: Recorded viscosity for CCCC#N , please?
OUTPUT: 0.81

###

For each entry below, report its viscosity value.
details: 333.15 K; 101 kPa; Liquid; Falling or rolling sphere viscometry
Numbers only, in mPa·s.

molecule="N#CCCCCC#N [hexanedinitrile]" measurement_kind=viscosity measurement_unit=mPa·s observed_measurement=3.02
molecule="CCCC#N [butanenitrile]" measurement_kind=viscosity measurement_unit=mPa·s observed_measurement=0.75
molecule="N#CCCCC#N [pentanedinitrile]" measurement_kind=viscosity measurement_unit=mPa·s observed_measurement=2.88

As a next step, examine the molecule that follows.
INPUT: Recorded viscosity for CCCC[N+]1(C)CCCC1.O=S(=O)([N-]S(=O)(=O)C(F)(F)F)C(F)(F)F , please?
OUTPUT: 21.82

###

conditions: 333.15 K; 101 kPa; Liquid; Vibrating tube method
Measurement kind: mass density (kg/m3)
Give bare numbers, in kg/m3.

The examples below pair each entry with its known result.
molecular_string=CCCC[N+]1(C)CCCC1.O=S(=O)([N-]S(=O)(=O)C(F)(F)F)C(F)(F)F measurement_kind="mass density" measurement_unit=kg/m3 observed_measurement=1363.8
molecular_string=N#CCCCC#N measurement_kind="mass density" measurement_unit=kg/m3 observed_measurement=955.6
molecular_string=N#CCCCCC#N measurement_kind="mass density" measurement_unit=kg/m3 observed_measurement=932.3

As a next step, examine the compound that follows.
INPUT: Recorded mass density for CCCC#N , please?
OUTPUT: 753.5

###

settings: 293.15 K; 101 kPa; Liquid; Vibrating tube method
For each entry below, report its mass density value.
Numbers only, in kg/m3.

molecular_string=CCCC#N observed_measurement=791.1

Field: mass density. Fill in for each record below.
1. CCCC[N+]1(C)CCCC1.O=S(=O)([N-]S(=O)(=O)C(F)(F)F)C(F)(F)F
2. N#CCCCC#N

OUTPUT:
1: 1399.8; 2: 987

INPUT: Recorded mass density for N#CCCCCC#N , please?
OUTPUT: 962.3

###

settings: 298.15 K; 101 kPa; Liquid; Vibrating tube method
Measurement kind: mass density (kg/m3)
One number for each entry, in kg/m3.

molecule="N#CCCCCC#N [hexanedinitrile]" measurement_kind="mass density" measurement_unit=kg/m3 observed_measurement=958.6

Field: mass density. Fill in for each record below.
1. N#CCCCC#N [pentanedinitrile]
2. CCCC#N [butanenitrile]
3. CCCC[N+]1(C)CCCC1.O=S(=O)([N-]S(=O)(=O)C(F)(F)F)C(F)(F)F

OUTPUT:
[983.1, 786.4, 1395.2]

###

details: 323.15 K; 101 kPa; Liquid; Vibrating tube method
For each entry below, report its mass density value.
Numbers only, in kg/m3.

molecular_string=CCCC[N+]1(C)CCCC1.O=S(=O)([N-]S(=O)(=O)C(F)(F)F)C(F)(F)F measurement_unit=kg/m3 observed_measurement=1372.8
molecular_string=CCCC#N measurement_unit=kg/m3 observed_measurement=763
molecular_string=N#CCCCCC#N measurement_unit=kg/m3 observed_measurement=939.8

As a next step, examine the molecule that follows.
INPUT: Recorded mass density for N#CCCCC#N , please?
OUTPUT: 963.4

###

conditions: 303.15 K; 101 kPa; Liquid; Vibrating tube method
Measurement kind: mass density (kg/m3)
Numbers only, in kg/m3.

molecular_string=N#CCCCCC#N measurement_kind="mass density" observed_measurement=954.8

Field: mass density. Fill in for each record below.
1. CCCC#N
2. N#CCCCC#N

OUTPUT:
1. 781.8
2. 979.1

INPUT: Recorded mass density for CCCC[N+]1(C)CCCC1.O=S(=O)([N-]S(=O)(=O)C(F)(F)F)C(F)(F)F , please?
OUTPUT: 1390.7

###

conditions: 313.15 K; 101 kPa; Liquid; Vibrating tube method
± gives the expanded uncertainty stated by the source.
For each entry below, report its mass density value.

molecular_string=N#CCCCC#N measurement_kind="mass density" observed_measurement="971.2 ± 2 kg/m3"
molecular_string=N#CCCCCC#N measurement_kind="mass density" observed_measurement="947.2 ± 1.9 kg/m3"

Field: mass density. Fill in for each record below.
1. CCCC#N
2. CCCC[N+]1(C)CCCC1.O=S(=O)([N-]S(=O)(=O)C(F)(F)F)C(F)(F)F

OUTPUT:
1: 772.4 ± 1.6 kg/m3; 2: 1381.7 ± 2.8 kg/m3

###

details: 293.15 K; 101 kPa; Liquid; Falling or rolling sphere viscometry
± gives the expanded uncertainty stated by the source.
Measurement kind: viscosity
In your response, put the unit directly after the numeric value.

The examples below pair each entry with its known result.
molecule=CCCC[N+]1(C)CCCC1.O=S(=O)([N-]S(=O)(=O)C(F)(F)F)C(F)(F)F measurement_kind=viscosity observed_measurement="98.72 ± 2.4 mPa·s"
molecule="N#CCCCCC#N [hexanedinitrile]" measurement_kind=viscosity observed_measurement="7.17 ± 0.44 mPa·s"
molecule="N#CCCCC#N [pentanedinitrile]" measurement_kind=viscosity observed_measurement="6.97 ± 0.07 mPa·s"

INPUT: Recorded viscosity for CCCC#N [butanenitrile] , please?
OUTPUT: 0.88 ± 0.05 mPa·s

###

conditions: 303.15 K; 101 kPa; Liquid; Falling or rolling sphere viscometry
For each entry below, report its viscosity value.
Numbers only, in mPa·s.

The examples below pair each entry with its known result.
molecular_string=N#CCCCCC#N measurement_unit=mPa·s observed_measurement=5.53
molecular_string=CCCC#N measurement_unit=mPa·s observed_measurement=0.84
molecular_string=CCCC[N+]1(C)CCCC1.O=S(=O)([N-]S(=O)(=O)C(F)(F)F)C(F)(F)F measurement_unit=mPa·s observed_measurement=62.29

INPUT: Recorded viscosity for N#CCCCC#N , please?
OUTPUT: 5.39

###

conditions: 298.15 K; 101 kPa; Liquid; Falling or rolling sphere viscometry
For each entry below, report its viscosity value.
Give bare numbers, in mPa·s.

The examples below pair each entry with its known result.
molecular_string=CCCC#N observed_measurement=0.86
molecular_string=N#CCCCC#N observed_measurement=6.12
molecular_string=N#CCCCCC#N observed_measurement=6.31

As a next step, examine the compound that follows.
INPUT: Recorded viscosity for CCCC[N+]1(C)CCCC1.O=S(=O)([N-]S(=O)(=O)C(F)(F)F)C(F)(F)F , please?
OUTPUT: 77.66

###

settings: 323.15 K; 101 kPa; Liquid; Falling or rolling sphere viscometry
For each entry below, report its viscosity value.
Give bare numbers, in mPa·s.

molecular_string=CCCC#N measurement_unit=mPa·s observed_measurement=0.78
molecular_string=N#CCCCCC#N measurement_unit=mPa·s observed_measurement=3.73
molecular_string=CCCC[N+]1(C)CCCC1.O=S(=O)([N-]S(=O)(=O)C(F)(F)F)C(F)(F)F measurement_unit=mPa·s observed_measurement=29.61

As a next step, examine the compound that follows.
INPUT: Recorded viscosity for N#CCCCC#N , please?
OUTPUT: 3.47
